Test system: Plasmodium falciparum
Assay: Effective concentration for Plasmodium falciparum 3D7
Type: functional, organism-based
measurement_kind: pEC50
Kindly note that pEC50 refers to -log10 of the concentration in mol/L and answer with the value alone.

The recorded pEC50 for CCN(CC)CCCC(C)Nc1c2ccc(Cl)cc2nc2ccc(OC)cc12 (stereo in doubt; form 2) is 8.10
